- Measured target: Autotaxin (Homo sapiens) (UniProt Q13822)
- Procedure summary: Activity of human autotaxin in human […] cells assessed as effect on enzyme-mediated of FS3 hydrolysis at 1 uM
- Type: cell-based
- Design: scale not given: the % may be the effect or the level left
Measurement type: Activity (%)

Recorded results for 10 compounds are shown here.
CCCCCCCCCCC(=O)OC[C@@H](O)COP(=O)([O-])OCC[N+](C)(C)C: 101
CCCCCCCC/C=C\CCCCCCCCOP(=O)(O)OCC[N+](C)(C)C: 100
CCCCCCCCCCCCCCCCOP(=O)([O-])OCC[N+](C)(C)C: 113
CCCCCCCCCCCCCCCCCCOP(=O)([O-])NCC[N+](C)(C)C: 74
CCCCCCCCC(=O)OC[C@@H](O)COP(=O)([O-])OCC[N+](C)(C)C: 81
CCCCCCCC/C=C\CCCCCCCCOP(=O)([O-])OCC[N+](C)(C)C: 59
CCCCCCCCCCCCCCCCCCC(=O)OC[C@@H](O)COP(=O)([O-])OCC[N+](C)(C)C: 99
CCCCCCCCCCCCC(=O)OC[C@@H](O)COP(=O)([O-])OCC[N+](C)(C)C: 97
CCCCCCCCCCCCCCCCOC[C@@H](O)COP(=O)([O-])CCC[N+](C)(C)C: 82
CCCCCCCCCCCCCCCCCCOC[C@@H](O)COP(=O)([O-])CCC[N+](C)(C)C: 89

1 = CCCCCCCCCCCCCCOP(=O)([O-])OCC[N+](C)(C)C
2 = CCCCCCCCCCCCCCCCCCOC[C@H](O)COP(=O)([O-])CCC[N+](C)(C)C
Identify the entry with the larger Activity. Options: 1 and 2 Your answer should be the label attached to the chosen record.
1
